system: Haemophilus parasuis; assay: in vitro susceptibility, MIC by mini broth dilution; format: cell-based
# MIC values, Haemophilus parasuis values compiled below
Return type: number; implicit unit ug/mi.

Guide cases for MIC values, Haemophilus parasuis, answers given:
CC[C@H]1OC(=O)[C@H](C)[C@@H](O[C@H]2C[C@@](C)(OC)[C@](O)(CNc3cc(Cl)ccc3C)[C@H](C)O2)[C@H](C)[C@@H](O[C@@H]2O[C@H](C)C[C@H](N(C)C)[C@H]2O)[C@](C)(O)C[C@@H](C)NC[C@H](C)[C@@H](O)[C@]1(C)O [syzx-94] :: 0.5
CCCN1C[C@H](C)[C@@H](O)[C@](C)(O)[C@@H](CC)OC(=O)[C@H](C)[C@@H](O[C@H]2C[C@@](C)(OC)[C@](O)(CNC3CCCCCC3)[C@H](C)O2)[C@H](C)[C@@H](O[C@@H]2O[C@H](C)C[C@H](N(C)C)[C@H]2O)[C@](C)(O)C[C@H]1C [syzx-203] :: 0.5
CCCN1C[C@H](C)[C@@H](O)[C@](C)(O)[C@@H](CC)OC(=O)[C@H](C)[C@@H](O[C@H]2C[C@@](C)(OC)[C@](O)(CNc3ccc(C)cc3C)[C@H](C)O2)[C@H](C)[C@@H](O[C@@H]2O[C@H](C)C[C@H](N(C)C)[C@H]2O)[C@](C)(O)C[C@H]1C [syzx-229] :: 4
CC[C@H]1OC(=O)[C@H](C)[C@@H](O[C@H]2C[C@@](C)(OC)[C@](O)(CNc3ccccc3F)[C@H](C)O2)[C@H](C)[C@@H](O[C@@H]2O[C@H](C)C[C@H](N(C)C)[C@H]2O)[C@](C)(O)C[C@@H](C)NC[C@H](C)[C@@H](O)[C@]1(C)O [syzx-95] :: 2
CCC1OC(=O)C(C)C(OC2CC(C)(OC)C(O)(CNCCCNC3CCCCC3)C(C)O2)C(C)C(OC2OC(C)CC(N(C)C)C2O)C(C)(O)CC(C)NCC(C)C(O)C1(C)O (stereo not drawn) [syzx-60] :: 1

## Task Give its MIC values, Haemophilus parasuis value. Item: CCCN1C[C@H](C)[C@@H](O)[C@](C)(O)[C@@H](CC)OC(=O)[C@H](C)[C@@H](O[C@H]2C[C@@](C)(OC)[C@](O)(CNc3ccc(C)o3)[C@H](C)O2)[C@H](C)[C@@H](O[C@@H]2O[C@H](C)C[C@H](N(C)C)[C@H]2O)[C@](C)(O)C[C@H]1C [syzx-178]
## Result 4

## Task What do you get for CC[C@H]1OC(=O)[C@H](C)[C@@H](O[C@H]2C[C@@](C)(OC)[C@](O)(CNC(C)CCCN(C)C)[C@H](C)O2)[C@H](C)[C@@H](O[C@@H]2O[C@H](C)C[C@H](N(C)C)[C@H]2O)[C@](C)(O)C[C@@H](C)NC[C@H](C)[C@@H](O)[C@]1(C)O (stereo partly drawn) [syzx-59] ?
## Result 0.5
